- Protocol text: Plasma concentration-time profile of RTV and metabolites
- Type: in vivo
- Conditions: human, 400 mg bid

{"Compound": "CC(C)c1nc(CN(C)C(=O)N[C@H](C(=O)N[C@@H](Cc2ccccc2)C[C@H](O)[C@H](Cc2ccccc2)NC(=O)OCc2cncs2)C(C)C)cs1 [RTV, Ritonavir]", "Cmax, µM": 4.8}

----------
- Study system: CYP2J2 (Homo sapiens)
- Sequence (P51589 whole entry): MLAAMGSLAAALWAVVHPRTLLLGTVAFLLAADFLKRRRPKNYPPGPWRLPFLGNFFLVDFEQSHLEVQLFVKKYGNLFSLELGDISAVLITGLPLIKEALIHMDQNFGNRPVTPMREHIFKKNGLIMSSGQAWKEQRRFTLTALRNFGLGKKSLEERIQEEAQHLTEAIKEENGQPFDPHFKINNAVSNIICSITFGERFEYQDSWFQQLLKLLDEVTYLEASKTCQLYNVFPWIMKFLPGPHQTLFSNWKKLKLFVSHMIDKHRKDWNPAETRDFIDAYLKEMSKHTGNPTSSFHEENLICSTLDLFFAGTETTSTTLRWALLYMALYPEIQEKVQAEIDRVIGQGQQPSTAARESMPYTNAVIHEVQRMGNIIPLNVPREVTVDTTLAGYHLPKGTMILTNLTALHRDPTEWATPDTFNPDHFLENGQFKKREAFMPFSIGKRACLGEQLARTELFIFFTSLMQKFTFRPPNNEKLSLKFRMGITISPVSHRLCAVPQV
- Protocol text: in vitro
- Conditions: recombinant enzyme

{"Structure": "C#C[C@]1(O)CC[C@H]2[C@@H]3CCC4=Cc5oncc5C[C@]4(C)[C@H]3CC[C@@]21C", "Unit abbreviation": "%", "inhibition at 5 min": 95}
